IC50 for assorted compounds
- SYSTEM_UNDER_TEST: full length N-terminally FLAG-tagged PARP1 (Homo sapiens)
- Sequence (P09874 whole entry): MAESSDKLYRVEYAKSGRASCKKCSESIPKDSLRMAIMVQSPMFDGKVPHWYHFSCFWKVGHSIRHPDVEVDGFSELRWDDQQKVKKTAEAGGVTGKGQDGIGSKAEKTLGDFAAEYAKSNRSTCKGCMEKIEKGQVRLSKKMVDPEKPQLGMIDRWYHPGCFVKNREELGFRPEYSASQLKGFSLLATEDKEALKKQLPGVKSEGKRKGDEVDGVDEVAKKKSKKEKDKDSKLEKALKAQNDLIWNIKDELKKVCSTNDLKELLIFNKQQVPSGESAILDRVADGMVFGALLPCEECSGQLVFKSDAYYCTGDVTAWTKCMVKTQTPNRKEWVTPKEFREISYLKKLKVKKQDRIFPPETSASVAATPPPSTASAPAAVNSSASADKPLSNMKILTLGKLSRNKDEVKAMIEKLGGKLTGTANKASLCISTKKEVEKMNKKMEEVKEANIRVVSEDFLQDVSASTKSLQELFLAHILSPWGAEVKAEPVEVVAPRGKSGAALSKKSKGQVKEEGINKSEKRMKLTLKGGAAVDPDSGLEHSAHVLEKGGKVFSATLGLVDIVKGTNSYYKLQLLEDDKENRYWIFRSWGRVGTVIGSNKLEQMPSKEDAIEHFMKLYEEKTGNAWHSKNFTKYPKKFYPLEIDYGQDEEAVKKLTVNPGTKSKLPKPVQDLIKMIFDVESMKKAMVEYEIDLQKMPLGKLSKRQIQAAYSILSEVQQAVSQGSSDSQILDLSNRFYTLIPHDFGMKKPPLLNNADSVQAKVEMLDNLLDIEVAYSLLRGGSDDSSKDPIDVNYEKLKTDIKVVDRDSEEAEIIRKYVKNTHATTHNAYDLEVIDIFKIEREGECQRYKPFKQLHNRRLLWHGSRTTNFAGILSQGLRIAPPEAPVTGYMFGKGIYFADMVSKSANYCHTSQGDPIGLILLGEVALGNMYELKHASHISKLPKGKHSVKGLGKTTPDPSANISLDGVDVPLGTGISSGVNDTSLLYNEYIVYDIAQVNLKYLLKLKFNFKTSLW
- PROCEDURE_SUMMARY: PARP1 biochemical DELFIA assay (auto-PARylation)
- Parameters: recombinant full length human N-terminally FLAG-tagged PARP1
- MEASUREMENT_CONDITIONS: binned IC50, PARP1 biochemical DELFIA assay

Examples from the recorded data:
Problem: What value of IC50 has been recorded for this entry: CNC(=O)c1ccc(N2CC(N3CCC(Cc4nc5ccccc5c(=O)[nH]4)CC3)C2)cn1 [Compound 48]
Result: < 10 nM

Problem: Same question for CNC(=O)c1ccc(OCCN2CCCC(Cc3nc4ccccc4c(=O)[nH]3)C2)cn1 (single isomer, unassigned) [Compound 14a] please.
Result: 1000 to 10000 nM

Problem: Repeat with CNC(=O)c1ccc(N2CCC(N3CCCC(c4nc5onc(C(F)(F)F)c5c(=O)[nH]4)C3)CC2)cn1 (racemic) [Compound 191rac]
Result: 100 to 1000 nM

Problem: Then CNC(=O)c1ccc(N2CCC(N3CCCC(c4nc5ccccc5c(=O)[nH]4)C3)CC2)c(F)n1 (racemic) [Compound 103rac] ?
Result: < 10 nM

Problem: Another compound: CNC(=O)c1ccc(N2CCC(N3CCC(c4cc5cccc(F)c5c(=O)[nH]4)C3)CC2)cn1 (single isomer, unassigned) [Compound 136a]
Result: < 10 nM

Now look at this entry.
Problem: # lookup: IC50 of CNC(=O)c1ccc(N2CCC(N3CCC(c4cc5ncccc5c(=O)[nH]4)C3)CC2)cn1 (single isomer, unassigned) [Compound 218a]
Result: 10 to 100 nM

###

- SYSTEM_UNDER_TEST: full length N-terminally FLAG-tagged PARP1 (Homo sapiens)
- PROCEDURE_SUMMARY: PARP1 probe displacement HTRF assay
- MEASUREMENT_CONDITIONS: read-out: PARP1 HTRF; binned Kd, PARP1 probe displacement HTRF
REPORTED_ENDPOINT: Kd

Problem: Entry CNC(=O)c1ccc(N2CCC(N3CCC(c4nc(C)cc(=O)[nH]4)C3)CC2)cn1 (single isomer, unassigned) [Compound 97a] has what Kd?
Result: > 10000 nM

Problem: What do you have for CCc1nc(C(=O)NC)ccc1N1CCC(N2CCCC(c3nc4ccccc4c(=O)[nH]3)C2)CC1 (single isomer, unassigned) [Compound 112a] ?
Result: 100 to 1000 nM

Next:
Problem: Reported Kd, molecule CNC(=O)c1ncc(N2CCC(N3CCC(c4cc5cccc(F)c5c(=O)[nH]4)C3)CC2)cn1 (racemic) : ____
Result: 10 to 100 nM

Problem: Similarly, CNC(=O)c1ccc(N2CCC(N3CCC(c4nc5ncccc5c(=O)[nH]4)C3)CC2)cn1 (single isomer, unassigned) [Compound 60a] ?
Result: < 10 nM

Problem: Try this molecule too: CNC(=O)c1ccc(N2CCC(N3CCC(c4cc5cccc(Cl)c5c(=O)[nH]4)C3)CC2)cn1 (single isomer, unassigned) [Compound 128a]
Result: 10 to 100 nM

Problem: Next record, please: CNC(=O)c1ccc(N2CCC(N3CCCC(c4nc5ccccc5c(=O)[nH]4)C3)CC2)nc1 (single isomer, unassigned) [Compound 83a]
Result: 100 to 1000 nM

###

- SYSTEM_UNDER_TEST: full length N-terminally FLAG-tagged PARP1 (Homo sapiens)
- PROCEDURE_SUMMARY: PARP1 probe displacement HTRF assay
- MEASUREMENT_CONDITIONS: read-out: PARP1 HTRF; binned Kd, probe displacement HTRF
REPORTED_ENDPOINT: Kd

Solved cases below.
Problem: Which Kd is reported for this compound? CC(=O)Nc1ccc(N2CCC(N3CCC(c4cc5ccccc5c(=O)[nH]4)C3)CC2)cn1 (single isomer, unassigned) [Compound 306b]
Result: < 10 nM

Problem: Param item: CNC(=O)c1ncc(N2CCC(N3CCC(c4cc5cccc(F)c5c(=O)[nH]4)C3)CC2)c(C)n1 (racemic)
Result: < 10 nM

Problem: Continue with CNC(=O)c1ccc(N2CCC(N3CCC(F)(c4nc5ccccc5c(=O)[nH]4)C3)CC2)cn1 (single isomer, unassigned) [Compound 328a]
Result: 100 to 1000 nM

Problem: And then CNC(=O)c1ccc(N2CCC(N3CCC(c4nc5c(c(=O)[nH]4)COC5)C3)CC2)cn1 (single isomer, unassigned) [Compound 272a] , what is it?
Result: > 10000 nM

Problem: Please give the result for CNC(=O)c1ccc(N2CCC(N3CCC(c4ccc(CCF)c(=O)[nH]4)C3)CC2)cn1 (racemic) too.
Result: < 10 nM

Problem: What do you get for CNC(=O)c1ccc(N2CCC(N3CCC(c4cc5ccc(F)cc5c(=O)[nH]4)C3)CC2)c(Cl)n1 (single isomer, unassigned) [Compound 223a] ?
Result: < 10 nM

Problem: Next record, please: CS(=O)(=O)NC(=O)c1ccc(N2CCC(N3CCC(c4cc5ccccc5c(=O)[nH]4)C3)CC2)cc1 (single isomer, unassigned) [Compound 342b]
Result: < 10 nM

Problem: Record: CNC(=O)c1ccc(N2CCC(N3CCC(c4nc5ncncc5c(=O)[nH]4)C3)CC2)cn1 (racemic)
Result: 100 to 1000 nM

Problem: Please do the same for CS(=O)(=O)Nc1ccc(N2CCC(N3CCC(c4nc5ccccc5c(=O)[nH]4)C3)CC2)cc1 (single isomer, unassigned) [Compound 250b] as well.
Result: 10 to 100 nM

Problem: Likewise for CNC(=O)c1ccc(N2CCC(N3CCC(c4[nH]c(=O)c5c(F)cccc5c4F)C3)CC2)c(F)n1 (single isomer, unassigned) [Compound 402b] ?
Result: < 10 nM

***
Problem: What value of measured Kd is listed for CCc1ccc(C2CCN(C3CCN(c4cnc(C(=O)NC)nc4C)CC3)C2)[nH]c1=O (single isomer, unassigned) [Compound 246a] ?
Result: 100 to 1000 nM

Problem: And then CNC(=O)c1ccc(N2CCC(N3CCC(c4[nH]c(=O)c5ccccc5c4F)C3)CC2)cn1 (racemic) , what is it?
Result: < 10 nM

Problem: And for CNC(=O)c1ccc(N2CCC(N3CC(c4cc5cccc(F)c5c(=O)[nH]4)CC3=O)CC2)cn1 (racemic) ?
Result: < 10 nM

###

Recorded Kd, one value per entry.
- SYSTEM_UNDER_TEST: N-terminally FLAG-tagged PARP2 (amino acids 1-583) (Homo sapiens, UniProt Q9UGN5)
- Construct: N-terminally FLAG-tagged PARP2 (amino acids 1-583)
- Sequence (Q9UGN5 whole entry, the tested form may be a part): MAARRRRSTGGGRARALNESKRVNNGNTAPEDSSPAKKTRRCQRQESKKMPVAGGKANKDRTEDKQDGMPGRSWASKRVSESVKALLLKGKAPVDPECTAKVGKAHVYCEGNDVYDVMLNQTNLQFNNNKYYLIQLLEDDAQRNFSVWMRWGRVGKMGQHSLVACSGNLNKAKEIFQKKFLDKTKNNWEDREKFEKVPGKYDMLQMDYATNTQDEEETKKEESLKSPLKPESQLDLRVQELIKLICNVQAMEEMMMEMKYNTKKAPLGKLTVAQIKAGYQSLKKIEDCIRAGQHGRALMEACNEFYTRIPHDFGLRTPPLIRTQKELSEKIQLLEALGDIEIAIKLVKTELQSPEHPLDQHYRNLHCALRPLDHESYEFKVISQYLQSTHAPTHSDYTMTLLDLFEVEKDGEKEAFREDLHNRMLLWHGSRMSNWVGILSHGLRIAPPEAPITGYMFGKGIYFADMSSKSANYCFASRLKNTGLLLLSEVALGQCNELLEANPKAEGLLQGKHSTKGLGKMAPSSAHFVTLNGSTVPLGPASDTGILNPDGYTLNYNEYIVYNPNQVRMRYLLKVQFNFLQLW
- PROCEDURE_SUMMARY: PARP2 probe displacement HTRF assay
- Type: binding
- MEASUREMENT_CONDITIONS: binned Kd, PARP2 probe displacement HTRF

Problem: Find the recorded Kd belonging to CCNC(=O)c1ccc(N2CCC(N3CCC(c4nc5ccccc5c(=O)[nH]4)C3)CC2)cn1 (single isomer, unassigned) [Compound 111b] and report it.
Result: 100 to 1000 nM

Problem: Another: CNC(=O)c1ccc(N2CCC(N3CCC(c4cc5cccnc5c(=O)[nH]4)C3)CC2)cn1 (racemic)
Result: > 10000 nM

Problem: Now consider CNC(=O)c1ccc(N2CC(N3CCCC(c4nc5ccccc5c(=O)[nH]4)CC3)C2)cn1 (single isomer, unassigned) [Compound 145a] .
Result: 1000 to 10000 nM

Problem: Please do the same for N#Cc1ccc(N2CCC(N3CCC(c4nc5ccccc5c(=O)[nH]4)C3)CC2)cn1 (single isomer, unassigned) [Compound 69a] as well.
Result: 100 to 1000 nM

---
Problem: Give its Kd value. Item: CNC(=O)c1ccc(N2CCC(N3CCCC(c4nc5ccc(F)cc5c(=O)[nH]4)C3)CC2)cn1 (single isomer, unassigned) [Compound 78a]
Result: 1000 to 10000 nM

Problem: Now consider CNC(=O)c1ccc(N2CCC(N3CCCC(c4ncc(C)c(=O)[nH]4)C3)CC2)cn1 (single isomer, unassigned) [Compound 33b] .
Result: > 10000 nM

###

- SYSTEM_UNDER_TEST: full length N-terminally FLAG-tagged PARP1 (Homo sapiens)
- PROCEDURE_SUMMARY: PARP1 biochemical DELFIA assay (auto-PARylation)
- Set-up: recombinant full length human N-terminally FLAG-tagged PARP1
- MEASUREMENT_CONDITIONS: binned IC50, biochemical auto-PARylation assay
pIC50: −log10 of the molar value.
REPORTED_ENDPOINT: pIC50

Consider the worked cases shown below.
Problem: Give the reported pIC50 for CNC(=O)c1ccc(N2CCC(N3CCC(c4[nH]c(=O)c5c(F)cccc5c4F)C3)CC2)c(F)n1 (single isomer, unassigned) [Compound 402a] (system: full length N-terminally FLAG-tagged PARP1 (Homo sapiens)).
Result: > 8.00

Problem: What about CCc1ccc(C2CCN(C3CCN(c4cnc(C(=O)NC)cc4C(F)(F)F)CC3)C2)[nH]c1=O (single isomer, unassigned) [Compound 298a] ?
Result: 5.00 to 6.00

Problem: Follow-up entry: CNC(=O)c1ccc(N2CCC(N3CCC(c4cc5c(c(=O)[nH]4)CCCC5)C3)CC2)c(F)n1 (single isomer, unassigned) [Compound 337b]
Result: > 8.00

Problem: Next: CCc1ccc(C2CCN(C3CCN(c4cnc(C(=O)NC)nc4C)CC3)C2)[nH]c1=O (single isomer, unassigned) [Compound 246b]
Result: > 8.00

Problem: Can you handle CNC(=O)c1cnc(N2CCC(N3CCC(c4nc5ccccc5c(=O)[nH]4)C3)CC2)nc1 (racemic) next?
Result: 7.00 to 8.00

Others:
Problem: Quick check: pIC50 on full length N-terminally FLAG-tagged PARP1 (Homo sapiens), item CNC(=O)c1ccc(N2CCC(N3CCC(c4cc5cccc(F)c5c(=O)[nH]4)C3)CC2)c(F)c1 (single isomer, unassigned) [Compound 371a] ?
Result: > 8.00

Problem: Try CNC(=O)c1ccc(N2CCC(N3CCC(c4cc5c(c(C(F)(F)F)nn5C)c(=O)[nH]4)C3)CC2)c(F)n1 (single isomer, unassigned) [Compound 407b] next.
Result: > 8.00

Problem: Another compound to look at: CNC(=O)c1ccc(N2CCC(N3CCC(c4cc5c(c(=O)[nH]4)CCC(=O)N5C)C3)CC2)cn1 (racemic)
Result: > 8.00

Problem: Another compound to check: CCc1ccc(C2CCN(C3CCN(c4ccc(C#N)nc4)CC3)C2)[nH]c1=O (single isomer, unassigned) [Compound 326b]
Result: 7.00 to 8.00

Problem: // same read-out, input: CCc1ccc(C2CCN(C3CCN(c4ccc(C(=O)NCCF)nc4F)CC3)C2)[nH]c1=O (single isomer, unassigned) [Compound 322b]
Result: > 8.00

Problem: Also CNC(=O)c1ccc(N2CCC(N3CCC(c4nc5c(c(=O)[nH]4)NCCN5)C3)CC2)cn1 (racemic) , if possible.
Result: 7.00 to 8.00

Problem: Entry CNC(=O)c1ncc(N2CCC(N3CCC(c4cc5ccc(F)cc5c(=O)[nH]4)C3)CC2)c(C(F)(F)F)n1 (single isomer, unassigned) [Compound 266a] please
Result: > 8.00

Problem: Consider next the compound CNC(=O)c1ccc(N2CCC(N3CCC(c4nc5c(C(F)(F)F)cn(C)c5c(=O)[nH]4)C3)CC2)cn1 (racemic) in the same way.
Result: 7.00 to 8.00
